target: human GLP-1 receptor (Homo sapiens, UniProt P43220); assay: biochemical
Sequence (P43220 24-463): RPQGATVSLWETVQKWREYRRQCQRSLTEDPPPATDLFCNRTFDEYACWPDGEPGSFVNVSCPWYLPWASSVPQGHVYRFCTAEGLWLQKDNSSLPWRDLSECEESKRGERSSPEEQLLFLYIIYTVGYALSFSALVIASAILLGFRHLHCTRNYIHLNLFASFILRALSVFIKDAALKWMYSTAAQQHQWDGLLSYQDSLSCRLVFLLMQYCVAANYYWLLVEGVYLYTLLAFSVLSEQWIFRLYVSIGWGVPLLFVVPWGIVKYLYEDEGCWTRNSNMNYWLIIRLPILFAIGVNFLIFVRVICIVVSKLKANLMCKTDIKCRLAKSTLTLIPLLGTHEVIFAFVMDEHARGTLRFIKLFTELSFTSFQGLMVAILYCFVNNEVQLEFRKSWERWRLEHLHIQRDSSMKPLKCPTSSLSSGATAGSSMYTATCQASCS
VALUE KIND: EC50 (nM)

Sample answers from the record:
{"COMPOUND": "CC(C)c1nc2cc(Cl)c(Cl)cc2nc1S(=O)(=O)c1cncn1C [Example 65]", "EC50 [nM]": 650}
{"COMPOUND": "CC(C)Nc1nc2cc(Cl)c(Cl)cc2nc1S(=O)(=O)Cc1ccc(OC(F)F)cc1 [Example 136]", "EC50 [nM]": 820}
{"COMPOUND": "CCCc1nc2cc(Cl)c(Cl)cc2nc1S(C)(=O)=O [Example 92]", "EC50 [nM]": 770}

a. CS(=O)(=O)c1nc2cc(Cl)c(Cl)cc2nc1NC1CCCc2ccccc21 (centres unmarked) [Example 108]
b. CC(C)(C)Nc1nc2cc(Cl)c(Cl)cc2nc1S(C)(=O)=O [Example 103]
c. CCC(C)(C)Nc1nc2cc(Cl)c(Cl)cc2nc1S(C)(=O)=O [Example 135]
hey, can you rank those compounds up there by EC50? biggest number first please Order the labels as requested and give them as your answer.
a, c, b
